Data origin, for the record: patent US20240398781A1

- ASSAY SYSTEM: human emopamil binding protein and human 7-dehydrocholesterol reductase co-expressing cells (hEBP-DHCR7 membrane) (Homo sapiens (Human))
Measured pKi, listed per entry for reference.
Just so you know, pKi here is -log10 of the concentration in molar units; reply with that number alone.

[[record]]
molecule = "O=S1(=O)CC2(CCN([C@H]3CC[C@@H](c4nc(-c5cccc(C(F)(F)F)n5)nn4C4CC4)C3)CC2)C1 (single isomer, unassigned) [42A*]"
assay_readout = "pKi"
obs_value = 6.24

[[record]]
molecule = "O=S1(=O)CC2(CCN([C@@H]3CC[C@H](c4ccc(C(F)(F)F)nc4)C3)CC2)C1 (single isomer, unassigned) [57C*]"
assay_readout = "pKi"
obs_value = 6.92

[[record]]
molecule = "Cc1cc(C(F)(F)F)ncc1[C@H]1CC[C@@H](N2CCC3(C2)CS(=O)(=O)C3)CC1 [Compound 21A]"
assay_readout = "pKi"
obs_value = 7.49

[[record]]
molecule = "O=S1(=O)CC2(CCN([C@H]3CC[C@H](c4cc(C(F)(F)F)nn4C4CC4)CC3)CC2)C1 [Compound 40B]"
assay_readout = "pKi"
obs_value = 6.74


Exercise: Input Cn1nc(C(F)(F)F)cc1[C@H]1CC[C@H](N2CCC[C@]3(CCS(=O)(=O)C3)C2)CC1 (single isomer, unassigned) [26B*] , output reported pKi.
Key: 7.92

Exercise: Input CCn1nc(-c2ccc(C(F)(F)F)nc2)nc1[C@H]1CC[C@@H](N2CCC3(CC2)CS(=O)(=O)C3)CC1 (stereo in doubt) [43B*] , output reported pKi.
Key: 6.29

###

- ASSAY SYSTEM: human emopamil binding protein and human 7-dehydrocholesterol reductase co-expressing cells (hEBP-DHCR7 membrane) (Homo sapiens (Human))
ASSAY READOUT: Ki (nM)
Field: numeric (nM). Do not append units.

[[record]]
molecule = "CC(C)n1nc(-c2cccc(C(F)(F)F)n2)cc1[C@H]1CC[C@@H](N2CCC3(CC2)CS(=O)(=O)C3)C1 (single isomer, unassigned) [46C*]"
obs_value = 13

[[record]]
molecule = "O=S1(=O)CC2(CCN([C@H]3CC[C@@H](c4ccc(F)c(F)c4)CC3)CC2)C1 [Compound 77B]"
obs_value = 8

[[record]]
molecule = "CC(C)n1nc(C(F)(F)F)cc1[C@@H]1CCC[C@@H](N2CCC3(C2)CS(=O)(=O)C3)C1 (single isomer, unassigned) [61A*]"
obs_value = 80

[[record]]
molecule = "O=S1(=O)CC2(CCN([C@H]3CC[C@H](c4ccnc(C(F)(F)F)c4)CC3)CC2)C1 [Compound 90B]"
obs_value = 1290

[[record]]
molecule = "O=S1(=O)CC2(CCN([C@H]3CC[C@H](c4cc(C(F)(F)F)ncc4Cl)CC3)C2)C1"
obs_value = 12

[[record]]
molecule = "CC(C)n1nc(C2CC2)nc1[C@@H]1CC[C@H](N2CCC3(C2)CS(=O)(=O)C3)C1 (single isomer, unassigned) [18A*]"
obs_value = 960

[[record]]
molecule = "O=S1(=O)CC2(CCN([C@H]3CC[C@@H](c4ccc(F)c(F)c4)CC3)C2)C1 [Compound 70B]"
obs_value = 6.7

[[record]]
molecule = "O=S1(=O)CC2(CCN([C@H]3CC[C@@H](c4cc(C(F)(F)F)nn4C4CCC4)CC3)C2)C1 [Compound 23A]"
obs_value = 21

[[record]]
molecule = "O=S1(=O)CC2(CCN([C@@H]3CCC[C@@H](c4ccc(C(F)(F)F)nc4)C3)C2)C1 (single isomer, unassigned) [54B*]"
obs_value = 100

[[record]]
molecule = "CC(C)(C)n1nc(C(F)(F)F)cc1[C@H]1CC[C@@H](N2CCC3(CC2)CS(=O)(=O)C3)CC1 [Compound 85B]"
obs_value = 300


Alright, here's another molecule for you.
Exercise: Input Cc1cc(C(F)(F)F)cnc1[C@H]1CC[C@H](N2CCC3(C2)CS(=O)(=O)C3)CC1 [Compound 47B] , output reported Ki.
Key: 23

###

- ASSAY SYSTEM: UniProt Q15125
- ASSAY PROCEDURE: Competition binding assay (SPA, [3H]-Ifenprodil) to determine compound affinity to EBP
- APPLIED CONDITIONS: [3H]-Ifenprodil 10 nM, HEK293 membrane overexpressing human EBP, Ki=IC50/(1+[L]/Kd); read-out: hEBP SPA Ki
ASSAY READOUT: pKi
Just so you know, pKi here is -log10 of the concentration in molar units; reply with that number alone.

Sample answers from the record:
[[record]]
compound = "CC(C)n1cc(C(F)(F)F)nc1[C@@H]1CC[C@H](N2CCC3(C2)CS(=O)(=O)C3)C1 (single isomer, unassigned) [20D*]"
obs_value = 7.01

[[record]]
compound = "CC(C)n1nc(-c2ccc(C(F)(F)F)nc2)nc1[C@@H]1CC[C@@H](N2CCC3(C2)CS(=O)(=O)C3)C1 (single isomer, unassigned) [17C*]"
obs_value = 7.74

[[record]]
compound = "Cn1nc(C(F)(F)F)cc1[C@H]1CC[C@H](N2CCC3(C2)CS(=O)(=O)C3)CC1 [Compound 2B]"
obs_value = 7.70

[[record]]
compound = "Cn1nc(C(F)(F)F)cc1[C@H]1CC[C@H](N2CCC3(CC2)CS(=O)(=O)C3)CC1 [Compound 25B]"
obs_value = 7.24

[[record]]
compound = "O=S1(=O)CC2(CCN([C@H]3CC[C@H](c4cc(C(F)(F)F)nn4C4CC4)CC3)C2)C1 [Compound 12A]"
obs_value = 7.55

[[record]]
compound = "CC(C)n1nc(-c2ccc(C(F)(F)F)nc2)nc1[C@H]1CC[C@@H](N2CCC3(C2)CS(=O)(=O)C3)C1 (single isomer, unassigned) [17D*]"
obs_value = 7.70

[[record]]
compound = "O=S1(=O)CC2(CCN([C@H]3CCCN(c4ccc(C(F)(F)F)cc4)C3)C2)C1 (single isomer, unassigned) [22B*]"
obs_value = 7.15

[[record]]
compound = "CC(C)n1nc(-c2ccc(C(F)(F)F)nc2)nc1[C@H]1CC[C@H](N2CCC3(C2)CS(=O)(=O)C3)C1 (single isomer, unassigned) [17B*]"
obs_value = 7.51

[[record]]
compound = "CC(C)n1nc(C2CC2)nc1[C@@H]1CC[C@H](N2CCC3(C2)CS(=O)(=O)C3)C1 (single isomer, unassigned) [18A*]"
obs_value = 6.51

[[record]]
compound = "CCn1nc(C(F)(F)F)cc1[C@H]1CC[C@H](N2CCC3(C2)CS(=O)(=O)C3)CC1 [Compound 15]"
obs_value = 7.60


Exercise: Input O=S1(=O)CC2(CCN([C@@H]3CO[C@@H](c4ccc(C(F)(F)F)cc4)C3)C2)C1 (stereo in doubt) [19B*] , output reported pKi.
Key: 7.57

Exercise: Input O=S1(=O)CC2(CCN([C@H]3CC[C@@H](c4cc(C(F)(F)F)nn4C4CC4)CC3)CC2)C1 [Compound 40A] , output reported pKi.
Key: 7.49

Exercise: Input Cn1nc(C(F)(F)F)cc1[C@H]1CC[C@H](N2CC[C@@]3(CCS(=O)(=O)C3)C2)CC1 (single isomer, unassigned) [38D*] , output reported pKi.
Key: 7.57

Exercise: Input O=S1(=O)CC2(CCN([C@H]3CC[C@@H](c4ccc(C(F)(F)F)nc4)C3)C2)C1 (single isomer, unassigned) [Compound 11A] , output reported pKi.
Key: 7.27

Exercise: Input Cc1nc(C(F)(F)F)ccc1N1CCC(N2CCC3(C2)CS(=O)(=O)C3)CC1 [Compound 29] , output reported pKi.
Key: 7.35

Exercise: Input O=S1(=O)CC2(CCN([C@H]3CC[C@@H](c4ccc(C(F)(F)F)nc4)CC3)C2)C1 [Compound 14B] , output reported pKi.
Key: 7.52

###

Measured Ki, listed per entry for reference.
- ASSAY SYSTEM: human EBP (Homo sapiens (Human))
- Sequence (Q15125 whole entry): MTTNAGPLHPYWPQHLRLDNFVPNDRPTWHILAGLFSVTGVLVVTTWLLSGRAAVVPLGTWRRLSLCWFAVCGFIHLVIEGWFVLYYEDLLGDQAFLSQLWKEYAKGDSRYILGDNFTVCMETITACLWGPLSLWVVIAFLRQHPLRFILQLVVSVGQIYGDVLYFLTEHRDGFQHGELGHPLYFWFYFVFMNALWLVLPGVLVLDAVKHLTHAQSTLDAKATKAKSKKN
- ASSAY PROCEDURE: Competition binding assay (SPA, [3H]-Ifenprodil) to determine compound affinity to EBP
- APPLIED CONDITIONS: [3H]-Ifenprodil 10 nM, HEK293 membrane overexpressing human EBP, Ki=IC50/(1+[L]/Kd); read-out: hEBP SPA Ki
Field: numeric (nM). Do not append units.

Sample answers from the record:
[[record]]
molecule = "Cn1nc(C(F)(F)F)cc1[C@H]1CC[C@H](N2CC[C@]3(CCS(=O)(=O)C3)C2)CC1 (single isomer, unassigned) [38C*]"
obs_value = 29

[[record]]
molecule = "O=S1(=O)CC2(CCN([C@@H]3CC[C@@H](c4ccc(C(F)(F)F)nc4)C3)C2)C1 (single isomer, unassigned) [Compound 11B]"
obs_value = 42


Exercise: Input Cn1nc(C(F)(F)F)cc1[C@H]1CC[C@H](N2CC[C@]3(CCS(=O)(=O)C3)C2)CC1 (single isomer, unassigned) [27B*] , output reported Ki.
Key: 46
